Test system: 616215-338-R-J1-PDC spheroids with HUVEC/MSC, viability
testDescription: Anticancer human tumor 616215-338-R-J1-PDC patient-derived colon adenocarcinoma cell line growth inhibition [PI3K]
details: second compound 0.00316 µM; first compound 10 µM; hits give low values
Text: Combinatorial screen of targeted agents with the PI3K inhibitors inavolisib, alpelisib, duvelisib, and copanlisib in multi-cell type tumor spheroids A high-throughput screen of multi-cell type tumor spheroids was designed to identify active combinations of targeted small molecules and PI3K pathway inhibitors. […] Compounds. […] If the clinical Cmax for an agent had not been determined, the highest concentration tested was 10 microM. […]
Rule for this label: Y means viability, T/C is less than 20%; N means viability, T/C is at least 20%.

-- ask Consider the compound C[C@@H](NC(=O)c1ncnc(N)c1Cl)c1ncc(C(=O)Nc2cc(C(F)(F)F)c(Cl)cn2)s1 + CC(Nc1ccc2c(c1)OCCn1cc(N3C(=O)OCC3C(F)F)nc1-2)C(N)=O . Is its viability, T/C strictly less than 20%?
-- reply N

-- ask Consider the compound CC1(C)CCC(Nc2ncc(C(F)(F)F)c(-c3c[nH]c4c(P(C)(C)=O)c(C#N)ccc34)n2)CN1 (configuration not stated) + COc1c(OCCCN2CCOCC2)ccc2c3n(c(=NC(=O)c4cnc(N)nc4)nc12)CCN3 . Is its viability, T/C strictly less than 20%?
-- reply Y

-- ask Consider the compound C=CC(=O)N1CCN(c2nc(=O)n(-c3c(C)ccnc3C(C)C)c3nc(-c4c(O)cccc4F)c(F)cc23)C(C)C1 (configuration not stated) + COc1c(OCCCN2CCOCC2)ccc2c3n(c(=NC(=O)c4cnc(N)nc4)nc12)CCN3 . Is its viability, T/C strictly less than 20%?
-- reply N

-- ask Consider the compound Cn1ncc(Cl)c1-c1cc(C(=O)NC(CN)Cc2cccc(F)c2)sc1Cl (configuration not stated) + COc1c(OCCCN2CCOCC2)ccc2c3n(c(=NC(=O)c4cnc(N)nc4)nc12)CCN3 . Is its viability, T/C strictly less than 20%?
-- reply Y

-- ask Consider the compound CCCS(=O)(=O)Nc1ccc(F)c(C(=O)c2c[nH]c3ncc(-c4ccc(Cl)cc4)cc23)c1F + CC(Nc1ccc2c(c1)OCCn1cc(N3C(=O)OCC3C(F)F)nc1-2)C(N)=O . Is its viability, T/C strictly less than 20%?
-- reply Y

-- ask Consider the compound Cn1nccc1Nc1nccc(-c2ccn(C(CO)c3ccc(Cl)c(F)c3)c(=O)c2)n1 (configuration not stated) + CC(Nc1ccc2c(c1)OCCn1cc(N3C(=O)OCC3C(F)F)nc1-2)C(N)=O . Is its viability, T/C strictly less than 20%?
-- reply N

-- ask Consider the compound CC1(C)CCC(Nc2ncc(C(F)(F)F)c(-c3c[nH]c4c(P(C)(C)=O)c(C#N)ccc34)n2)CN1 (configuration not stated) + CC(Nc1ccc2c(c1)OCCn1cc(N3C(=O)OCC3C(F)F)nc1-2)C(N)=O . Is its viability, T/C strictly less than 20%?
-- reply Y

-- ask Consider the compound Cn1nccc1Nc1nccc(-c2ccn(C(CO)c3ccc(Cl)c(F)c3)c(=O)c2)n1 (configuration not stated) + COc1c(OCCCN2CCOCC2)ccc2c3n(c(=NC(=O)c4cnc(N)nc4)nc12)CCN3 . Is its viability, T/C strictly less than 20%?
-- reply N

-- ask Consider the compound CC(C)NCC(C(=O)N1CCN(c2ncnc3c2C(C)CC3O)CC1)c1ccc(Cl)cc1 (configuration not stated) + COc1c(OCCCN2CCOCC2)ccc2c3n(c(=NC(=O)c4cnc(N)nc4)nc12)CCN3 . Is its viability, T/C strictly less than 20%?
-- reply N

-- ask Consider the compound CNC(=O)c1ccc(N2C(=S)N(c3ccc(C#N)c(C(F)(F)F)c3)C(=O)C2(C)C)cc1F + CC(Nc1ccc2c(c1)OCCn1cc(N3C(=O)OCC3C(F)F)nc1-2)C(N)=O . Is its viability, T/C strictly less than 20%?
-- reply N

-- ask Consider the compound C#Cc1c(F)ccc2cc(O)cc(-c3ncc4c(N5CC6CCC(C5)N6)nc(OCC56CCCN5CC(F)C6)nc4c3F)c12 (configuration not stated) + CC(Nc1ccc2c(c1)OCCn1cc(N3C(=O)OCC3C(F)F)nc1-2)C(N)=O . Is its viability, T/C strictly less than 20%?
-- reply N

-- ask Consider the compound C#Cc1c(F)ccc2cc(O)cc(-c3ncc4c(N5CC6CCC(C5)N6)nc(OCC56CCCN5CC(F)C6)nc4c3F)c12 (configuration not stated) + COc1c(OCCCN2CCOCC2)ccc2c3n(c(=NC(=O)c4cnc(N)nc4)nc12)CCN3 . Is its viability, T/C strictly less than 20%?
-- reply N

----------
Tested on: 616215-338-R-J1-PDC spheroids with HUVEC/MSC, viability
testDescription: Anticancer human tumor 616215-338-R-J1-PDC cell line growth inhibition [PI3K];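 also: spheroids exposed to agents for seven days before the viability read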
details: second compound 10 µM; first compound 0.0316 µM; hits give low values
endpointLabel: viability, T/C (%)
Express it in %; write the number only.

-- ask Query for 616215-338-R-J1-PDC spheroids with HUVEC/MSC, viability: what viability, T/C does the record show for CC(C)NCC(C(=O)N1CCN(c2ncnc3c2C(C)CC3O)CC1)c1ccc(Cl)cc1 (stereo unspecified) + CC(Nc1ncnc2nc[nH]c12)c1cc2cccc(Cl)c2c(=O)n1-c1ccccc1 ?
-- reply 105

-- ask Query for 616215-338-R-J1-PDC spheroids with HUVEC/MSC, viability: what viability, T/C does the record show for CCN1CCN(Cc2ccc(Nc3ncc(F)c(-c4cc(F)c5nc(C)n(C(C)C)c5c4)n3)nc2)CC1 + CC(Nc1ncnc2nc[nH]c12)c1cc2cccc(Cl)c2c(=O)n1-c1ccccc1 ?
-- reply 118

-- ask Query for 616215-338-R-J1-PDC spheroids with HUVEC/MSC, viability: what viability, T/C does the record show for CC(C)n1nc(-c2ccc3oc(N)nc3c2)c2c(N)ncnc21 + CC(Nc1ncnc2nc[nH]c12)c1cc2cccc(Cl)c2c(=O)n1-c1ccccc1 ?
-- reply 112

-- ask Query for 616215-338-R-J1-PDC spheroids with HUVEC/MSC, viability: what viability, T/C does the record show for CC(C)n1nc(-c2ccc3oc(N)nc3c2)c2c(N)ncnc21 + Cc1nc(NC(=O)N2CCCC2C(N)=O)sc1-c1ccnc(C(C)(C)C(F)(F)F)c1 ?
-- reply 56.7

-- ask Query for 616215-338-R-J1-PDC spheroids with HUVEC/MSC, viability: what viability, T/C does the record show for CC1(C)CCC(Nc2ncc(C(F)(F)F)c(-c3c[nH]c4c(P(C)(C)=O)c(C#N)ccc34)n2)CN1 (stereo unspecified) + CC(Nc1ncnc2nc[nH]c12)c1cc2cccc(Cl)c2c(=O)n1-c1ccccc1 ?
-- reply 48

-- ask Query for 616215-338-R-J1-PDC spheroids with HUVEC/MSC, viability: what viability, T/C does the record show for CC(C)NCC(C(=O)N1CCN(c2ncnc3c2C(C)CC3O)CC1)c1ccc(Cl)cc1 (stereo unspecified) + Cc1nc(NC(=O)N2CCCC2C(N)=O)sc1-c1ccnc(C(C)(C)C(F)(F)F)c1 ?
-- reply 96

----------
Tested on: 616215-338-R-J1-PDC spheroids with HUVEC/MSC, viability
testDescription: Anticancer human tumor 616215-338-R-J1-PDC cell line growth inhibition [PI3K];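 also: spheroids exposed to agents for seven days before the viability read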
details: second compound 1 µM; first compound 0.1 µM; hits give low values
Source text: Combinatorial screen of targeted agents with the PI3K inhibitors inavolisib, alpelisib, duvelisib, and copanlisib in multi-cell type tumor spheroids A high-throughput screen of multi-cell type tumor spheroids was designed to identify active combinations of targeted small molecules and PI3K pathway inhibitors. […] Compounds. […] If the clinical Cmax for an agent had not been determined, the highest concentration tested was 10 microM. […]
For each entry below, report its viability, T/C value.

-- ask # query: viability, T/C of entry CC(Cn1ccc(-c2ccc(C#N)c(Cl)c2)n1)NC(=O)c1cc(C(C)O)[nH]n1 (stereo unspecified) + CC(Nc1ccc2c(c1)OCCn1cc(N3C(=O)OCC3C(F)F)nc1-2)C(N)=O
-- reply 99.8%

-- ask # query: viability, T/C of entry CCCS(=O)(=O)Nc1ccc(F)c(C(=O)c2c[nH]c3ncc(-c4ccc(Cl)cc4)cc23)c1F + CC(Nc1ncnc2nc[nH]c12)c1cc2cccc(Cl)c2c(=O)n1-c1ccccc1
-- reply 105%

-- ask # query: viability, T/C of entry C=CC(=O)N1CCN(c2nc(=O)n(-c3c(C)ccnc3C(C)C)c3nc(-c4c(O)cccc4F)c(F)cc23)C(C)C1 (stereo unspecified) + CC(Nc1ccc2c(c1)OCCn1cc(N3C(=O)OCC3C(F)F)nc1-2)C(N)=O
-- reply 96.7%

-- ask # query: viability, T/C of entry CC(C)n1nc(-c2ccc3oc(N)nc3c2)c2c(N)ncnc21 + Cc1nc(NC(=O)N2CCCC2C(N)=O)sc1-c1ccnc(C(C)(C)C(F)(F)F)c1
-- reply 79.1%

-- ask # query: viability, T/C of entry CNC(=O)c1ccc(N2C(=S)N(c3ccc(C#N)c(C(F)(F)F)c3)C(=O)C2(C)C)cc1F + CC(Nc1ccc2c(c1)OCCn1cc(N3C(=O)OCC3C(F)F)nc1-2)C(N)=O
-- reply 94.2%

-- ask # query: viability, T/C of entry C[C@@H](NC(=O)c1ncnc(N)c1Cl)c1ncc(C(=O)Nc2cc(C(F)(F)F)c(Cl)cn2)s1 + Cc1nc(NC(=O)N2CCCC2C(N)=O)sc1-c1ccnc(C(C)(C)C(F)(F)F)c1
-- reply 112%
